Reference source for all entries: patent US9540640B2

- Tested on: HK-2 cells
- PROTOCOL_TEXT: Individual shRNA screening: survival of transduced HK-2 cells under hypoxia (Protocol 2)
- Format: cell-based, human
- CONDITION_SET: viable shRNA-transduced HK-2 cells after hypoxia (0.2% oxygen 48 hours, low glucose DMEM) vs control HK-2 cells; 2-6 independent experiments; methylene blue
Define the label as class 1 when geometric mean of fold increase in cell number is strictly less than 10 fold and as class 0 in all remaining cases.

>  <SUBSTANCE>
26 (TTCCAGTAGAAGTAGTACT; expressed or natural sequence) [compound 26]

>  <CATEGORY_LABEL>
class 0

$$$$
>  <SUBSTANCE>
19 (AACATGTTCATAACCAGGTCG; expressed or natural sequence) [compound 19]

>  <CATEGORY_LABEL>
class 0

$$$$
>  <SUBSTANCE>
20 (TCTTCTAAGCACTGAAGAG; expressed or natural sequence) [compound 20]

>  <CATEGORY_LABEL>
class 0

$$$$
>  <SUBSTANCE>
11 (TCTTGCCAAGGTTTATGGC; expressed or natural sequence) [compound 11]

>  <CATEGORY_LABEL>
class 1

$$$$
>  <SUBSTANCE>
14 (ATCTCCTGAATATTTCAGCAG; expressed or natural sequence) [compound 14]

>  <CATEGORY_LABEL>
class 0

$$$$
>  <SUBSTANCE>
12 (ATCTCTTTGGACTTGAAGC; expressed or natural sequence) [compound 12]

>  <CATEGORY_LABEL>
class 1

$$$$
>  <SUBSTANCE>
18 (ATTGGTTTGATTTCCTCCC; expressed or natural sequence) [compound 18]

>  <CATEGORY_LABEL>
class 0

$$$$
>  <SUBSTANCE>
15 (ATGACATTGATCTGATCCA; expressed or natural sequence) [compound 15]

>  <CATEGORY_LABEL>
class 0

$$$$
>  <SUBSTANCE>
21 (TTACTGAACACGATCAGCAGG; expressed or natural sequence) [compound 21]

>  <CATEGORY_LABEL>
class 0

$$$$

====

- Tested on: HK-2 cells
- PROTOCOL_TEXT: Individual shRNA screening: survival of transduced HK-2 cells under hypoxia (Protocol 2)
- Type: cell-based, human
- CONDITION_SET: viable shRNA-transduced HK-2 cells after hypoxia (0.2% oxygen 48 hours, low glucose DMEM) vs control HK-2 cells; 2-6 independent experiments; methylene blue
API: label(entry) gives yes if the entry's geometric mean of fold increase in cell number is strictly smaller than 9 fold; on equality or larger values it gives no.

>  <SUBSTANCE>
13 (TGATGTCTGGTGTAGTAGG; expressed or natural sequence) [compound 13]

>  <CATEGORY_LABEL>
no

$$$$
>  <SUBSTANCE>
23 (ATAAATATCTGTTCCCAAG; expressed or natural sequence) [compound 23]

>  <CATEGORY_LABEL>
no

$$$$
>  <SUBSTANCE>
25 (TTCTCATAAATCTTGTTCG; expressed or natural sequence) [compound 25]

>  <CATEGORY_LABEL>
no

$$$$
>  <SUBSTANCE>
27 (TTGGATCTGTAAAGACGCCAC; expressed or natural sequence) [compound 27]

>  <CATEGORY_LABEL>
yes

$$$$
>  <SUBSTANCE>
17 (AAACGCTAAAGATGAGTCC; expressed or natural sequence) [compound 17]

>  <CATEGORY_LABEL>
yes

$$$$
>  <SUBSTANCE>
24 (TTCTTGTAAATAATGAGCG; expressed or natural sequence) [compound 24]

>  <CATEGORY_LABEL>
yes

$$$$
>  <SUBSTANCE>
16 (TCTTCAACAGAATCCACTT; expressed or natural sequence) [compound 16]

>  <CATEGORY_LABEL>
yes

$$$$
